# METHOD DESCRIPTION: Human HepG2 cell viability assay in 384 well format
# Assay type: toxicity, cell-based
# Set-up: dose 125 nL, time 70.5 hour; concentration not given beside the values
# EXPERIMENTAL CONDITIONS: HepG2 cells, read-out: Inhibition
Quick reference: cytotoxicity at 70.5 h of the listed items.

Examples from the recorded data:
INSERT INTO results (compound, reported_value) VALUES
  ('COc1c(CNC2CCN(C(C)(C)C)CC2)c(C(C)C)nn1C', '3.99%'),
  ('Cn1c(C2CC2)nc2c1CCN(CCOc1ccc(C#N)cc1)C2', '-9.07%'),
  ('O=C(c1cc(Cl)c2c(c1)OCO2)N1CCCC(n2ccnc2)C1 (centres undefined)', '-8.93%');

Then there is this compound:
// recorded cytotoxicity at 70.5 h for Cc1ccc(C(NC(=O)C2CC2)c2cccc(S(C)(=O)=O)c2)cc1 (centres undefined) : -4.47%
